- Test system: Human recombinant FAP (Homo sapiens, UniProt Q12884)
- Sequence (Q12884 1-760): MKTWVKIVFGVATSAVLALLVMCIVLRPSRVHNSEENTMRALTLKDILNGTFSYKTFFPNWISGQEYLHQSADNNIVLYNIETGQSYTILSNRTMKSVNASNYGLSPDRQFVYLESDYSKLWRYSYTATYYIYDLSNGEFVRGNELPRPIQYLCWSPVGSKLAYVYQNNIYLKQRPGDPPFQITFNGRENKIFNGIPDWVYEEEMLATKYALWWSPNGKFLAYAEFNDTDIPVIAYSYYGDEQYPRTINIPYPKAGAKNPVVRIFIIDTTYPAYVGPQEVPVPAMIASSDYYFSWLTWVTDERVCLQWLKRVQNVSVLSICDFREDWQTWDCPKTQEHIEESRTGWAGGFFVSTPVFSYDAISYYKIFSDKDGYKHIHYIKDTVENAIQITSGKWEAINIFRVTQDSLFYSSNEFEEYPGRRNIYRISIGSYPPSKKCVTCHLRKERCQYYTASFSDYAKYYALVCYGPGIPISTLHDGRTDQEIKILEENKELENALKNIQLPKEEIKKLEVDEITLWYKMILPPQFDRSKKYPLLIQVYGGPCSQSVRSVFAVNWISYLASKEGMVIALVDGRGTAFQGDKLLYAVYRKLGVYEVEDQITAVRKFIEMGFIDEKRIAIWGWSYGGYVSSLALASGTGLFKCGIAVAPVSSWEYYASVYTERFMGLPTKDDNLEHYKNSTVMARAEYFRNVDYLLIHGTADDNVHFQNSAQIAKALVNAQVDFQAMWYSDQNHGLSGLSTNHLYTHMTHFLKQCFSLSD
- Test name: FRET-based FAP protease activity assay
- Format: biochemical
- Set-up: purchased R&D systems 3715-SE
- Stated conditions: pIC50 Category (Activity), FRET substrate, 37° C.
pIC50: −log10 of the molar value. Numbered stars: 1 amine (or outer) side, 2 acyl side, 3 side chain; on linkers, the order of the positions; unused ones are H or OH. Bridge positions count the residues as written; N and C are the ends. Peptide text beside a SMILES is read from it. * marks the point of attachment. X5 = O=C(O)CN1CCN(CC(=O)O)CCN(CC(=O)NCCSCc2cc(CSC[C@@H](CO)N[*:2])cc(C[*:1])c2)CCN(CC(=O)O)CC1; Hexanoyl = CCCCCC(=O)*
Assay readout: pIC50

| Compound | pIC50 |
| --- | --- |
| CCCCCC(=O)N[C@@H]1CSCc2cc(CSCCNC(=O)CN3CCN(CC(=O)O)CCN(CC(=O)O)CCN(CC(=O)O)CC3)cc(c2)CSC[C@@H](C(=O)O)NC(=O)[C@H](Cc2ccccc2)NC(=O)[C@H](CCC(N)=O)NC(=O)[C@H]([C@@H](C)O)NC(=O)[C@@H]2CCCN2C(=O)[C@@H]2CCCN2C1=O | > 8.00 |
| CCCCCC(=O)N[C@H]1CSCc2cc(CSCCNC(=O)COCCOCCNC(=O)CN(CCN(CC(=O)O)CC(=O)O)CCN(CC(=O)O)CC(=O)O)cc(c2)CSC[C@@H](C(=O)O)NC(=O)[C@H](Cc2ccccc2)NC(=O)[C@H](CCC(N)=O)NC(=O)[C@H]([C@@H](C)O)NC(=O)[C@@H]2CCCN2C(=O)[C@@H]2CCCN2C1=O | 7.10 to 8.00 |

Answer with reported pIC50 of CCCCCC(=O)N[C@H]1CSCc2cc(CSCCNC(=O)CN3CCN(CC(=O)O)CCN(CC(=O)O)CCN(CC(=O)O)CC3)cc(c2)CSC[C@@H](CO)NC(=O)[C@H](Cc2ccccc2)NC(=O)[C@H](CCC(N)=O)NC(=O)[C@H]([C@@H](C)O)NC(=O)[C@@H]2CCCN2C(=O)[C@@H]2CCCN2C1=O [3BP-3762] (Hexanoyl-CPPTQF; linker 1-C via X5)
6.10 to 7.00

----------
- Test system: Human recombinant FAP (Homo sapiens)
- Test name: FRET-based FAP protease activity assay
- Type: biochemical
- Parameters: purchased R&D systems 3715-SE
- Stated conditions: pIC50 Category (Activity), FRET substrate, 37° C.
pIC50: −log10 of the molar value. Numbered stars: 1 amine (or outer) side, 2 acyl side, 3 side chain; on linkers, the order of the positions; unused ones are H or OH. Bridge positions count the residues as written; N and C are the ends. Square brackets hold non-standard residues; d marks the D form. Peptide text beside a SMILES is read from it. * marks the point of attachment. X9 = NCCNCC(CNCCN)C(=O)N[C@@H](CCC(=O)O)C(=O)NCCCOCCOCCOCCCN*; X10 = O=C([C@H](CCCc1cccc(C[*:3])c1)N[*:1])[*:2]; X40 = NCCNCC(CNCCN)C(=O)NCCS(=O)(=O)CCN*; mXylylene = c1cc(C[*:1])cc(C[*:2])c1; Suc = O=C(CCC(=O)[*:2])[*:1]; Nle = CCCC[C@H](N)C(=O)O
Reported pIC50 values are given for each entry in this list.

| Molecule | Test system | pIC50 |
| --- | --- | --- |
| CCCC[C@H](NC(=O)CCC(=O)NCCS(=O)(=O)CCNC(=O)C(CNCCN)CNCCN)C(=O)N[C@H]1CSCc2cccc(c2)CSC[C@@H](C(=O)O)NC(=O)[C@H](Cc2ccccc2)NC(=O)[C@H](CCC(=O)O)NC(=O)[C@H]([C@@H](C)O)NC(=O)[C@@H]2CCCN2C(=O)[C@@H]2CCCN2C1=O [3BP-4243] ({X40-Suc}-[Nle]CPPTEFC-OH; linker 2-8 via mXylylene) | Human recombinant FAP (Homo sapiens) | 7.10 to 8.00 |
| CCCCCC(=O)N[C@H]1CSCc2cc(CSCCNC(=O)CN3CCN(CC(=O)O)CCN(CC(=O)O)Cc4cccc(n4)C3)cc(c2)CSC[C@@H](C(=O)O)NC(=O)[C@H](Cc2ccccc2)NC(=O)[C@H](CCC(N)=O)NC(=O)[C@H]([C@@H](C)O)NC(=O)[C@@H]2CCCN2C(=O)[C@@H]2CCCN2C1=O [3BP-4379] | Human recombinant FAP (Homo sapiens) | > 8.00 |

Here is another molecule to look at.
Answer with reported pIC50 of CCCC[C@H](NC(=O)CCC(=O)NCCCOCCOCCOCCCNC(=O)[C@H](CCC(=O)O)NC(=O)C(CNCCN)CNCCN)C(=O)N[C@H]1CSCc2cccc(c2)CCC[C@@H](C(=O)O)NC(=O)[C@H](Cc2ccccc2)NC(=O)[C@H](CCC(=O)O)NC(=O)[C@H]([C@@H](C)O)NC(=O)[C@@H]2CCCN2C(=O)[C@@H]2CCCN2C1=O [3BP-4222] ({X9-Suc}-[Nle]CPPTEF[X10]-OH; thioether 2-8)
7.10 to 8.00

----------
- Test system: FAP-expressing human WI-38 fibroblasts (Homo sapiens, UniProt Q12884)
- Construct: FAP-expressing human WI-38 fibroblasts (ECACC) were cultured in EMEM; host or cells: WI-38 human fibroblasts
- Test name: Competitive FACS binding assay
- Stated conditions: pIC50 Category (FACS), competition with 3 nM Cy5-labeled compound, WI-38 fibroblasts, 4° C., 1 hour
pIC50: −log10 of the molar value. Numbered stars: 1 amine (or outer) side, 2 acyl side, 3 side chain; on linkers, the order of the positions; unused ones are H or OH. Bridge positions count the residues as written; N and C are the ends. Square brackets hold non-standard residues; d marks the D form. Peptide text beside a SMILES is read from it. * marks the point of attachment. mXylylene = c1cc(C[*:1])cc(C[*:2])c1; Octanoyl = CCCCCCCC(=O)*
Assay readout: pIC50

# count of solved cases: 2
| Compound | Test system | pIC50 |
| --- | --- | --- |
| CSCC[C@H](NC(C)=O)C(=O)N[C@H]1CSCc2cccc(c2)CSC[C@@H](C(=O)N[C@@H](CC(=O)O)C(=O)N[C@@H](Cc2c[nH]cn2)C(=O)N2Cc3ccccc3C[C@H]2C(=O)N[C@@H](CCCNC(=N)N)C(=O)N[C@@H](CC(=O)O)C(N)=O)NC(=O)[C@H](Cc2ccccc2)NC(=O)[C@H](CCC(=O)O)NC(=O)[C@H]2NC(=O)[C@@H]3C(CCN3C(=O)[C@@H]3CCCN3C1=O)[C@H]2O | FAP-expressing human WI-38 fibroblasts (Homo sapiens, UniProt Q12884) | > 8.00 |
| CCCCCCCC(=O)N[C@H]1CSCc2cccc(c2)CSC[C@@H](C(=O)N[C@@H](CC(=O)O)C(N)=O)NC(=O)[C@H](Cc2ccccc2)NC(=O)[C@H](CCC(N)=O)NC(=O)[C@H]([C@@H](C)O)NC(=O)[C@@H]2CCCN2C(=O)[C@@H]2CCCN2C1=O [3BP-3417] (Octanoyl-CPPTQFCD-NH2; linker 1-7 via mXylylene) | FAP-expressing human WI-38 fibroblasts (Homo sapiens, UniProt Q12884) | 7.10 to 8.00 |

Answer with reported pIC50 of CSCC[C@H](NC(C)=O)C(=O)N[C@H]1CSCc2cccc(c2)CSC[C@@H](C(=O)N[C@@H](CC(=O)O)C(=O)N[C@@H](Cc2c[nH]cn2)C(=O)N[C@@H](Cc2ccccc2)C(=O)N[C@@H](CCCNC(=N)N)C(=O)N[C@@H](CC(=O)O)C(N)=O)NC(=O)[C@H](Cc2ccccc2)NC(=O)[C@H](CCC(=O)O)NC(=O)[C@@H]([C@H](C)O)NC(=O)[C@@H]2CCCN2C(=O)[C@@H]2CCCN2C1=O [3BP-3178] (Ac-MCPP[dT]EFCDHFRD-NH2; linker 2-8 via mXylylene)
7.10 to 8.00
